The origin of these recorded values is ChEMBL document CHEMBL1201862.

Test system: IGROV-1
Assay info: NCI tumour cell line growth inhibition, 48 h
Calls of active or inactive are those of the source. Cut-off read from the data, not from the text of the source: active = GI50 up to about 1.1 µM and inactive = higher.
I'd appreciate it if you could supply GI50 values for the items below.

Solved cases (3 shown):
Molecule | Endpoint label | Result
N#Cc1c(O)c(/C=N/c2ccc(Cl)cc2)c(=O)n2c1[nH]c1ccccc12 | GI50 | > 100 µM (inactive)
C=C1C(C[C@@H]2O[C@H]3C[C@H]4O[C@@]5(C[C@@H]6O[C@]7(C[C@H](C)[C@@H]8O[C@@H]9CC(C(O)CO)O[C@@H]9C[C@@H]8O7)C[C@H](C)[C@@H]6O5)C[C@H]4O[C@H]3[C@H](C)[C@H]2O)O[C@@H](CC[C@@H]2O[C@@H](CC[C@@]34CC5O[C@H]6C(O[C@H]7CC[C@H](CC(=O)OC)O[C@@H]7[C@@H]6O3)[C@H]5O4)CC2=C)C[C@H]1C (stereo not given in full) | GI50 | < 0.0001 µM (active)
CN(/N=C/c1ccc(OCc2cccc(COc3ccc(C=O)cc3)n2)cc1)c1cnn(-c2ccc(Cl)cc2Cl)c(=O)c1Cl | GI50 | 62.5 µM (inactive)

Fill in GI50 for each of the 2 molecules listed.
1. O=C(C/C(=N\NC(=O)C[n+]1ccccc1)C(=O)Nc1nc2ccc([N+](=O)[O-])cc2s1)CC(c1ccccc1)c1c(O)c2ccccc2oc1=O (stereo not given)
2. O=C(NC(N1CCN(c2cc3c(cc2F)c(=O)c(C(=O)O)cn3C2CC2)CC1)(C(F)(F)F)C(F)(F)F)c1ccccc1

-- reply
> 100 µM (inactive)
36.3 µM (inactive)

====

Test system: SNB-19
Assay info: NCI tumour cell line growth inhibition, 48 h
Active and inactive are the calls of the source. Rule as the data show it: active = GI50 up to about 1.1 µM and inactive = higher.
Endpoint label: GI50

Molecule | Measurement target | Result
CC(=O)O[C@H]1CC[C@@]2(C)C(=CC[C@H]3[C@@H]4C/C(=C\c5ccncc5)[C@H](OC(C)=O)[C@@]4(C)CC[C@@H]32)C1 | SNB-19 | 8.61 µM (inactive)

Quick request: GI50 for each listed item, please.
1. CC1=NN(c2nc(N)nc(CCl)n2)CC1
2. CCOC(=O)N1C2C=C(C)C(C3C(C)C(=O)N31)N(C(=O)c1ccccc1)O2 (centres undefined)
3. COc1ccc(-c2cc(-c3ccc(Nc4ccnc5cc(C(F)(F)F)ccc45)cc3)nc(N)c2C#N)c2ccccc12

-- reply
> 100 µM (inactive)
> 100 µM (inactive)
> 100 µM (inactive)

====

# collection of GI50 values tested on HCT-15

Reference set (3 entries):
Compound | GI50
CCOc1cc(NC(C)=O)ccc1C(=O)NN1C(=O)/C(=C/c2cc(OC)c(OC)c(OC)c2)N=C1c1ccccc1 | > 100 µM
Nc1nc(N)c2c(Cl)c(CNc3ccc(C(=O)NC(CC(=O)O)C(=O)O)cc3)ccc2n1 (centres undefined) | < 0.01 µM
COCn1c(C)c(C)c2c(=O)oc(C)nc21 | > 100 µM

-- ask Reported GI50, compound `Cc1ccc(NC=O)c(-c2c(N)[nH]c(=S)[nH]c2=O)c1` : ____
-- reply > 100 µM

====

System: UACC-62
Assay info: NCI tumour cell line growth inhibition, 48 h
Calls of active or inactive are those of the source. No stated cut-off is given here; in the data, active = GI50 up to about 1.1 µM and inactive = higher.
I would appreciate it if you answered using one of these outcomes: 1 (yes) for active, 0 (no) for inactive

Here's what some known entries look like.
Compound | Category label
CC(=O)N/C=C/c1cc(O)ccc1O | 0 (no)
C(#CP(c1ccccc1)c1ccccc1)P(C#CP(c1ccccc1)c1ccccc1)c1ccccc1 | 0 (no)

-- ask Which outcome was assigned to `CC1(C)CC(=O)C(/C(=N/NC(=S)NN)C(=O)Nc2nc3ccc([N+](=O)[O-])cc3s2)C(=O)C1` in this test?
-- reply 0 (no)

-- ask Then `N#C/C(=C\c1ccc([N+](=O)[O-])o1)c1n[nH]c(Cc2ccccc2)n1` ?
-- reply 0 (no)

-- ask Cool, now `CC(=O)c1cnc2oc3ccc(O)cc3c2c1-c1ccccc1`
-- reply 0 (no)

-- ask Ok, now NC(CNc1ccc(O)cc1)C(=O)O (stereo not drawn)
-- reply 0 (no)

-- ask Item: `COCn1c(C)c(C)c2c(=O)oc(C)nc21`
-- reply 0 (no)

-- ask Lookup CC1=NOC(=O)C1/N=N/c1ccc(Br)c(C)c1 (stereo not drawn)
-- reply 0 (no)

-- ask CC(=O)OC12c3ccccc3C1CCCC21OCCCO1 (stereo not drawn) ?
-- reply 0 (no)

-- ask And what about the compound CCOC(=O)NC1CC2CCC1(OC)C=C2C (stereo not drawn) ?
-- reply 0 (no)

-- ask Again, but for `COc1cc2oc(=O)cc(C)c2c(OC)c1OC`
-- reply 0 (no)

-- ask Could you do the same for Cc1nc(=O)c2cc(CN(C)c3ccc(C(=O)N[C@@H](CCC(=O)O)C(=O)O)s3)ccc2[nH]1 [RALTITREXED] , please?
-- reply 1 (yes)

-- ask Moving on to the next compound: `O=C1CCC(=O)C12CCc1ccccc12`
-- reply 0 (no)

-- ask Same thing, different compound: `C/C(=N\NC(=S)Nc1ccc(C)cc1)c1nc2cccnc2[nH]1`
-- reply 0 (no)

-- ask Lookup CC1=C(C)CC2(CCCCC2=O)[S+]([O-])C1 (stereo not drawn)
-- reply 0 (no)

-- ask What would you report for `Cc1cc(=O)[nH]c2c1C(=O)c1c(C)cc(=O)n(C)c1C2=O` ?
-- reply 1 (yes)

-- ask Here is the next compound: O=C(/C=C/c1ccc(O)c(O)c1)OC1C[C@@](O)(C(=O)O)C[C@@H](O)[C@H]1OC(=O)/C=C/c1ccc(O)c(O)c1 (stereo partly drawn)
-- reply 0 (no)

-- ask Consider next the compound `COc1ccc(/C=N/n2cnc3c(c2=O)S/C(=C2/SC(=S)N(c4ccc(C)cc4)C2=O)N3c2ccccc2)cc1` in the same way.
-- reply 0 (no)

====

Test system: EKVX
Assay info: NCI tumour cell line growth inhibition, 48 h
Active and inactive are the calls of the source. No stated cut-off is given here; in the data, active = GI50 up to about 1.1 µM and inactive = higher.
Endpoint label: GI50

Compound | GI50
CCOC(=O)/C=C(/C(=O)OCC)n1cc(C)c(=O)n(Cc2cn(COCCOC(C)=O)nn2)c1=O | 16.7 µM (inactive)
O=C1c2ccccc2C(=O)N1c1ccc(Cc2ccc(N3C(=O)c4ccccc4C3=O)cc2)cc1 | > 100 µM (inactive)

Provide each entry's GI50 from the list below.
1. CCc1c(Cl)c(C)cc(O)c1Cl
2. O=C1NC(=O)C2C(=O)NC(=O)C1C2(c1ccccc1)c1ccc(Cl)cc1 (configuration not stated)
3. CCOC(=O)Cc1csc2[n+]1C(=O)/C(=C/c1cccc(OC)c1O)S2
4. CC1(C)CCC2(C(=O)OC3OC(CO)C(O)C(O)C3O)CCC3(CO)C(=CCC4C5(C)CC(O)C(O)C(C)(C(=O)OC6OC(CO)C(O)C(O)C6O)C5CCC43C)C2C1 (configuration not stated)
5. O=[N+]([O-])/C=C/c1c(Cl)cccc1Cl

-- reply
1. 36.2 µM (inactive)
2. > 100 µM (inactive)
3. 74.1 µM (inactive)
4. > 100 µM (inactive)
5. 5.65 µM (inactive)

====

Tested on: NCI-H226
Assay info: NCI tumour cell line growth inhibition, 48 h
Calls of active or inactive are those of the source. Rule as the data show it: active = GI50 up to about 1.1 µM and inactive = higher.
Your response should consist of one outcome taken from yes (active), no (inactive)

Compound | Category label
C=C1C(C[C@@H]2O[C@H]3C[C@H]4O[C@@]5(C[C@@H]6O[C@]7(C[C@H](C)[C@@H]8O[C@@H]9CC(C(O)CO)O[C@@H]9C[C@@H]8O7)C[C@H](C)[C@@H]6O5)C[C@H]4O[C@H]3[C@H](C)[C@H]2O)O[C@@H](CC[C@@H]2O[C@@H](CC[C@@]34CC5O[C@H]6C(O[C@H]7CC[C@H](CC(=O)OC)O[C@@H]7[C@@H]6O3)[C@H]5O4)CC2=C)C[C@H]1C (stereo not given in full) | yes
COC(=O)Cc1nc2ccccc2o1 | no
Nc1c2ccccc2nc2nccnc12 | no

-- ask Given CCOC(=O)NC1CC2CCC1(OC)C=C2C (stereo not given) , state the outcome it received in this test.
-- reply no

-- ask Try this compound too: `O=C(O)c1ccc(NNC(=O)c2cccc3c(=O)c4ccccc4[nH]c23)cc1`
-- reply no

====

System: RPMI-8226
Assay info: NCI tumour cell line growth inhibition, 48 h
Active and inactive are the calls of the source. No stated cut-off is given here; in the data, active = GI50 up to about 1.1 µM and inactive = higher.
Answer with one of the outcomes active, inactive

Solved entries (count: 5):
Compound | Measurement target | Category label
CSc1cccc(NC(=O)OC2CCCCCCCCCCC2)c1 | RPMI-8226 | inactive
C[Si](C)(C)/C(Br)=C\CCN1C(=O)CCC1O (stereo unspecified) | RPMI-8226 | inactive
CCCNC(=O)c1cc(OC)c(OC)cc1NC(=O)C12CC3CC(CC(C3)C1)C2 | RPMI-8226 | inactive
c1cc2c(c(NC3=NCCO3)c1)CCC2 | RPMI-8226 | inactive
Cc1ccc(C(=O)Nc2ccc(S(=O)(=O)O)c3cc(S(=O)(=O)O)cc(S(=O)(=O)O)c23)cc1NC(=O)Nc1cc(C(=O)Nc2ccc(S(=O)(=O)O)c3cc(S(=O)(=O)O)cc(S(=O)(=O)O)c23)ccc1C | RPMI-8226 | inactive

-- ask Which outcome did this test record for the compound COC(=O)/C(=N\NC(N)=O)C(C#N)c1ccccc1 (stereo unspecified) ?
-- reply inactive

-- ask Next record, please: CC1NC(=O)CC(c2ccccc2)N(N=O)C1c1ccccc1 (stereo unspecified)
-- reply inactive

-- ask Can you check `N/C(=N\c1cccc(Cl)c1)c1ccccc1N` next?
-- reply inactive

-- ask Note, next up: COC1CCC(=O)N1CN(C(C)=O)c1ccc(C)cc1 (stereo unspecified)
-- reply inactive

-- ask Would you mind doing CC(=O)OCC1OC(n2c(=O)n(-c3ccccc3)c(=O)c3cc(Br)cc(Br)c32)C(OC(C)=O)C(OC(C)=O)C1OC(C)=O (stereo unspecified) as well?
-- reply inactive

-- ask Likewise for `C#C/C=C\CCCC/C=C\C#CC#CCCCC#CC#C[C@H](COS(=O)(=O)O)OS(=O)(=O)O` ?
-- reply inactive

-- ask Again, but for CCOc1ccc(NC(=O)CC2SC(N)=NC2=O)cc1 (stereo unspecified)
-- reply inactive

-- ask Also O=C1CCCCC(=O)OC2(CCCCC2=O)CC1 (stereo unspecified) ?
-- reply inactive

-- ask Also need Cc1ccc2c(c1)C(=O)C1(C2)Cc2cccc(C)c2C1=O (stereo unspecified) , thanks.
-- reply inactive

-- ask Another: COC(=O)C1C(=O)N(C)C(=O)N2CCCC12 (stereo unspecified)
-- reply inactive

-- ask Next record, please: `CCCCCCCCCCCC[C@@H](O)[C@H]1CC[C@H]([C@H](O)CCCC[C@H](O)CCCCC[C@@H](O)CC2=C[C@H](C)OC2=O)O1`
-- reply active
